# assayed.target: plasma kallikrein (Homo sapiens, UniProt P03952)
# Construct: from tissue
# Sequence (P03952 391-638 limits assumed): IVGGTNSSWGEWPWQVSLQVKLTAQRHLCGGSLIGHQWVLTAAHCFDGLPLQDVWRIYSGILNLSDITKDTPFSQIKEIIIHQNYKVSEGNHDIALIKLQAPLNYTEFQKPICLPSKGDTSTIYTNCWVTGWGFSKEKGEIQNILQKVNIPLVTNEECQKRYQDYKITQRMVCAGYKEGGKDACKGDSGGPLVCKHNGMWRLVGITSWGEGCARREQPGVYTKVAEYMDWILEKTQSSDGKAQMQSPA
# Sequence (P03952 20-390 partner limits assumed): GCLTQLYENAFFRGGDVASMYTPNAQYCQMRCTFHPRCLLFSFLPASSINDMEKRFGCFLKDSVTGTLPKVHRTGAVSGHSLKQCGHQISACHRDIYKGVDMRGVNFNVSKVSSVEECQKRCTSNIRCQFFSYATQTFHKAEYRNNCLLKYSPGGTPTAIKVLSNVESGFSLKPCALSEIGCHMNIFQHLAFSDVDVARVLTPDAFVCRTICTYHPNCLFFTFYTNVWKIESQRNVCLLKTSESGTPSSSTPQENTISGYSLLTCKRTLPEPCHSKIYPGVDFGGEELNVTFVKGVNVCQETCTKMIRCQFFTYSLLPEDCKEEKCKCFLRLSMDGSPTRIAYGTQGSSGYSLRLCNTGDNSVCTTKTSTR
# protocol.description: Neat human plasma assay, FXIIa contact pathway-activated, PFR-AMC substrate
# Type: biochemical
# condition.set: citrated human plasma 78% final, 10 nM human FXIIa, 100 μM PFR-AMC; read-out: Human Plasma Assay: IC90
# Experimental: To analyze inhibition of plasma kallikrein in an ex vivo setting, the potency of compounds was measure in contact pathway-activated plasma assays. In a fluorogenic peptide substrate assay, test compounds dissolved in DMSO were added to sodium citrate collected human or rat plasma in a 96-well microplate. […] Fluorescence was immediately monitored by excitation/emission wavelengths of 360 nm/480 nm respectively over a period of 5 minutes in a microplate reader. […]
measurement.kind: IC90

Recorded IC90, per entry:
Cc1ccnc([C@H]2C[C@@H]2C(=O)Nc2cc(OCc3cn4cc(C5CC5)cc(N5CC(=O)N(CCO)C5=O)c4n3)ncn2)n1 (racemic)
400 to 1500 nM
Cc1ccnc([C@H]2C[C@@H]2C(=O)Nc2cc(N(C)Cc3cn4cc(C5CC5)cc(N5CC(=O)N(CCOCc6ccccc6)C5=O)c4n3)cc(C3CC3)n2)n1
1500 to 10000 nM

Find the recorded IC90 belonging to CN1C(=O)CN(c2cc(C3CC3)cn3cc(CNc4cc(NC(=O)[C@H]5C[C@@H]5c5nccc(C(F)F)n5)ncn4)nc23)C1=O (racemic) and report it.
400 to 1500 nM

Recorded IC90 of O=C(Nc1cncc(NCc2cn3cc(C4CC4)ccc3n2)c1)[C@H]1C[C@@H]1c1cccc(Cl)c1 (racemic) , please.
10000 to 48000 nM

Would you mind telling me what IC90 value was observed for O=C(Nc1cc(NCc2cn3cc(C4CC4)cc(N4CCOC4=O)c3n2)ncn1)[C@H]1C[C@@H]1c1cc(Cl)ccn1 [Example I-172] ?
400 to 1500 nM

Return reported IC90; argument: CN(c1cc(C2CC2)cn2cc(CNc3ccnc(NC(=O)[C@H]4C[C@@H]4c4cccc(Cl)c4)c3)nc12)S(C)(=O)=O
400 to 1500 nM

Given the entry COCCN1CCN(c2cc(C3CC3)cn3cc(CNc4ccnc(NC(=O)[C@H]5C[C@@H]5c5cccc(Cl)c5)c4)nc23)CC1 , report its measured IC90.
< 400 nM

Look up IC90: Cc1ccnc([C@H]2C[C@@H]2C(=O)Nc2cc(N[C@H](C)c3cn4cc(C5CC5)cc(N5CC(=O)N(C)C5=O)c4n3)nc(C)n2)n1 (single isomer, unassigned)
< 400 nM
